# assay-target: UniProt P19474
# Sequence (P19474 whole entry): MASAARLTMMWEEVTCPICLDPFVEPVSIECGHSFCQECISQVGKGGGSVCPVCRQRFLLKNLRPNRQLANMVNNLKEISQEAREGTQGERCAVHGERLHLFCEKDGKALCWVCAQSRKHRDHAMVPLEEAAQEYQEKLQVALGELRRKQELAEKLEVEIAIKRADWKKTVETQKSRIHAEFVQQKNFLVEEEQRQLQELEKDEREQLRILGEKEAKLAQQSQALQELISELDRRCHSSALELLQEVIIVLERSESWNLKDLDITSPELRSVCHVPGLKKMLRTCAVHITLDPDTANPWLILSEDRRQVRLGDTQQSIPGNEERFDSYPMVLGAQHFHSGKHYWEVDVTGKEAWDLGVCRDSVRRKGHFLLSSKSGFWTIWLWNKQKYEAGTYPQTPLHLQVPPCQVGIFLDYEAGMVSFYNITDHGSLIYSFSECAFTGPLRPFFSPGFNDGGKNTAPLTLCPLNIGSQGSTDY
# test: Detection of SPR Binding Assays (Surface Plasmon Resonance Binding Assay) of TRIM21 Compounds
Kindly supply the reported Kd values for the records listed here.

Given CSc1cc(F)ccc1-c1ccc(C(=O)N(C)CC2CCOCC2)c(S(C)(=O)=O)c1 , state its recorded Kd. < 0.01 µM

Given CN(CC1CCCCC1)C(=O)c1ccc(-c2cccc3cc[nH]c23)cc1S(C)(=O)=O , state its recorded Kd. > 10 µM

Given COc1cc(F)ccc1-c1ccc(C(=O)N(C)Cc2cc[nH]c(=O)c2)c(S(C)(=O)=O)c1 , state its recorded Kd. < 0.01 µM

Given CN(CC1CCCCC1)C(=O)c1ccc(-c2cccc3[nH]ccc23)cc1S(C)(=O)=O , state its recorded Kd. > 10 µM

Given CN(CC1CCCCC1)C(=O)c1ccc(-c2cccc3occc23)cc1S(C)(=O)=O , state its recorded Kd. > 10 µM
